These measurements were taken from PubChem BioAssay (NCATS).

Reported max response values are given for each entry in this list.
Experiment: qHTS Assay for Identifying Gametocytocidal Compounds (AID 743244);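 further: on the % scale 0 is the no-effect control and ±100 the full control effect; actives lower the fluorescent signal which means gametocytes are killed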
Conditions: P. falciparum 3D7 stage III-V gametocytes, alamarBlue, 72 h; active compounds read low
Records with an inconclusive call do not appear.
Quantity measured: max response (%)

[
  {
    "Compound": "CCOP(=S)(OCC)Oc1cc(C)nc(C(C)C)n1",
    "Units of measure": "%",
    "Observed value": 18.9
  },
  {
    "Compound": "N[C@@H](Cc1ccc(Oc2cc(I)c(O)c(I)c2)c(I)c1)C(=O)O",
    "Units of measure": "%",
    "Observed value": -7.97
  },
  {
    "Compound": "N[C@@H]1C[C@H]1c1ccccc1",
    "Units of measure": "%",
    "Observed value": 21.9
  },
  {
    "Compound": "Cc1cc(SCc2sc(-c3ccc(C(F)(F)F)c(F)c3)nc2C)ccc1OCC(=O)O",
    "Units of measure": "%",
    "Observed value": 27.5
  },
  {
    "Compound": "CN(C)CCc1ccc(O)cc1",
    "Units of measure": "%",
    "Observed value": -0.843
  },
  {
    "Compound": "Cc1cc2c(C(C)C)c(O)c(O)c(C=O)c2c(O)c1-c1c(C)cc2c(C(C)C)c(O)c(O)c(C=O)c2c1O",
    "Units of measure": "%",
    "Observed value": 0.673
  },
  {
    "Compound": "CN1C[C@H](CNC(=O)OCc2ccccc2)C[C@@H]2c3cccc4c3c(cn4C)C[C@H]21",
    "Units of measure": "%",
    "Observed value": -4.3
  },
  {
    "Compound": "CNCC(O)c1ccc(O)cc1 (centres undefined)",
    "Units of measure": "%",
    "Observed value": 28.1
  },
  {
    "Compound": "C[C@H]1O[C@@H](O[C@H]2[C@@H](O)C[C@H](O[C@H]3[C@@H](O)C[C@H](O[C@H]4CC[C@@]5(C)[C@H](CC[C@@H]6[C@@H]5CC[C@]5(C)[C@@H](C7=CC(=O)OC7)CC[C@]65O)C4)O[C@@H]3C)O[C@@H]2C)C[C@H](O)[C@@H]1O",
    "Units of measure": "%",
    "Observed value": -3.93
  }
]

* * *

Test system: Zika virus NS2B-NS3 protease
Experiment: Primary screen GU AMC qHTS for Zika virus inhibitors (AID 1347154); further: nearly all actives have a fitted effect of over 70% in size
Conditions: Zika NS2B-NS3 unlinked protease, AMC fluorogenic substrate; series mostly up to 54.1 µM
Records with an inconclusive call do not appear. Activity calls are given as the source filed them. The call rests on the fitted dose curve; in most records, active means well fitted inhibition curve with a large enough effect; inconclusive means small, poorly fitted or top-dose-only effect; inactive means flat fitted curve, though single readings scatter.
Outcome codes: active, inactive

[
  {
    "Molecule": "COc1ccc(C(=O)c2c(C)n(CCN3CCOCC3)c3ccccc23)cc1",
    "Assigned label": "inactive"
  },
  {
    "Molecule": "C[C@]12CCC(=O)C(O)=C1CC[C@@H]1[C@@H]2CC[C@]2(C)C(=O)CC[C@@H]12",
    "Assigned label": "inactive"
  },
  {
    "Molecule": "OCCOc1ccccc1",
    "Assigned label": "inactive"
  },
  {
    "Molecule": "CCOP(=S)(OCC)Oc1cc(C)nc(C(C)C)n1",
    "Assigned label": "inactive"
  },
  {
    "Molecule": "C[C@@H]1[C@@H](CC(C[C@H]2O[C@@H]3O[C@]4(C)CC[C@@H]5[C@H](C)CC[C@@H]([C@H]2C)[C@@]35OO4)C[S+](=O)([O-])c2ccc(COC(=O)N(C)C)cc2)O[C@@H]2O[C@]3(C)CC[C@H]4[C@H](C)CC[C@@H]1[C@@]24OO3 (stereo partly drawn)",
    "Assigned label": "inactive"
  },
  {
    "Molecule": "C[C@@H]1[C@@H](C(=O)C[C@H]2O[C@@H]3O[C@]4(C)CC[C@@H]5[C@H](C)CC[C@@H]([C@H]2C)[C@@]35OO4)O[C@@H]2O[C@]3(C)CC[C@H]4[C@H](C)CC[C@@H]1[C@@]24OO3",
    "Assigned label": "inactive"
  },
  {
    "Molecule": "CN(C)[C@@H]1C(=O)C(C(N)=O)=C(O)[C@@]2(O)C(=O)C3=C(O)c4c(O)cccc4[C@@](C)(O)[C@H]3C[C@@H]12",
    "Assigned label": "inactive"
  },
  {
    "Molecule": "CC1=C2C[C@@H]3[C@@H](CC=C4C[C@@H](O)CC[C@@]43C)[C@@H]2CC[C@]12O[C@H]1C[C@H](C)CN[C@H]1[C@H]2C",
    "Assigned label": "inactive"
  },
  {
    "Molecule": "CCCC1CCCCN1 (stereo not drawn)",
    "Assigned label": "inactive"
  },
  {
    "Molecule": "CC(=O)Nc1cc([As](=O)(O)O)ccc1O",
    "Assigned label": "inactive"
  },
  {
    "Molecule": "Fc1ccc(C(OCCN2CCN(CCCc3ccccc3)CC2)c2ccc(F)cc2)cc1",
    "Assigned label": "inactive"
  },
  {
    "Molecule": "c1ccc2c(c1)OCC(C1=NCCN1)O2 (stereo not drawn)",
    "Assigned label": "inactive"
  },
  {
    "Molecule": "CN(C)CCc1ccc(O)cc1",
    "Assigned label": "inactive"
  },
  {
    "Molecule": "C[C@]12C/C(=C/O)C(=O)C[C@@H]1CC[C@@H]1[C@@H]2CC[C@@]2(C)[C@H]1CC[C@]2(C)O",
    "Assigned label": "inactive"
  },
  {
    "Molecule": "Oc1ccc(Cl)cc1Cc1ccccc1",
    "Assigned label": "inactive"
  },
  {
    "Molecule": "COC1(CS(=O)c2ccccc2)CCN(CCc2c[nH]c3ccc(F)cc23)CC1 (stereo not drawn)",
    "Assigned label": "inactive"
  },
  {
    "Molecule": "Cc1ccc(S(=O)(=O)N[C@@H](CCCCN)C(=O)CCl)cc1",
    "Assigned label": "inactive"
  },
  {
    "Molecule": "O=C1NCN(c2ccccc2)C12CCN(CC1COc3ccccc3O1)CC2 (stereo not drawn)",
    "Assigned label": "inactive"
  },
  {
    "Molecule": "C=C1C[C@@H]2[C@H](CC[C@]3(C)C(=O)CC[C@@H]23)[C@@]2(C)C=CC(=O)C=C12",
    "Assigned label": "inactive"
  },
  {
    "Molecule": "C=C(C)[C@H]1Cc2c(ccc3c2O[C@@H]2COc4cc(OC)c(OC)cc4[C@@H]2C3=O)O1",
    "Assigned label": "inactive"
  },
  {
    "Molecule": "CNC(=O)N1N=C(c2ccc(N)cc2)c2cc3c(cc2CC1C)OCO3 (stereo not drawn)",
    "Assigned label": "inactive"
  },
  {
    "Molecule": "FC(F)(F)c1cccc(C2=CCN(CCc3ccc4ccccc4c3)CC2)c1",
    "Assigned label": "inactive"
  },
  {
    "Molecule": "N#CC(C#N)=Cc1ccc(O)c(O)c1",
    "Assigned label": "inactive"
  },
  {
    "Molecule": "CCC(COC(=O)c1cc(OC)c(OC)c(OC)c1)(c1ccccc1)N(C)C (stereo not drawn)",
    "Assigned label": "inactive"
  },
  {
    "Molecule": "Cc1cccc(C)c1NC(=O)CN1CCCC1=O",
    "Assigned label": "inactive"
  },
  {
    "Molecule": "O=C(O)C(=O)c1cn(Cc2ccccc2)c2ccc(-c3ccc(OC(F)(F)F)cc3)cc12",
    "Assigned label": "active"
  },
  {
    "Molecule": "O=c1[nH]c2ccccc2n1C1CCN(CCCC(c2ccc(F)cc2)c2ccc(F)cc2)CC1",
    "Assigned label": "inactive"
  },
  {
    "Molecule": "CCCN1CCC[C@@H]2Cc3nc(N)ncc3C[C@H]21",
    "Assigned label": "inactive"
  },
  {
    "Molecule": "O=C(NC(O)C(Cl)(Cl)Cl)NC(O)C(Cl)(Cl)Cl (stereo not drawn)",
    "Assigned label": "inactive"
  },
  {
    "Molecule": "Oc1cccc2cccnc12",
    "Assigned label": "inactive"
  },
  {
    "Molecule": "CN(C)CCN(C)CCc1ccc(Cl)c(Cl)c1",
    "Assigned label": "inactive"
  },
  {
    "Molecule": "C#CCN(C)[C@H](C)Cc1ccccc1",
    "Assigned label": "inactive"
  },
  {
    "Molecule": "CN1C(=S)CN=C(c2ccccc2)c2cc(Cl)ccc21",
    "Assigned label": "inactive"
  },
  {
    "Molecule": "c1ccc(C2CC2)c(OCC2=NCCN2)c1",
    "Assigned label": "inactive"
  },
  {
    "Molecule": "Cn1cc(C2=C(c3cn(C4CCN(Cc5ccccn5)CC4)c4ccccc34)C(=O)NC2=O)c2ccccc21",
    "Assigned label": "inactive"
  },
  {
    "Molecule": "COc1ccc(C(CN(C)C)C2(O)CCCCC2)cc1 (stereo not drawn)",
    "Assigned label": "inactive"
  },
  {
    "Molecule": "CC(C)=CCOc1c2occc2cc2ccc(=O)oc12",
    "Assigned label": "inactive"
  },
  {
    "Molecule": "CC[N+]1(C)CCCC(OC(=O)C(O)(c2ccccc2)c2ccccc2)C1 (stereo not drawn)",
    "Assigned label": "inactive"
  },
  {
    "Molecule": "NP(N)(=O)NC(=O)c1ccc(F)cc1",
    "Assigned label": "inactive"
  },
  {
    "Molecule": "C=CCN1CC[C@]23c4c5ccc(O)c4O[C@H]2C(=O)CC[C@@]3(O)[C@H]1C5",
    "Assigned label": "inactive"
  },
  {
    "Molecule": "COc1ccc(Cc2nccc3cc(OC)c(OC)cc23)cc1OC",
    "Assigned label": "inactive"
  },
  {
    "Molecule": "CCOC(=O)C1(c2ccccc2)CCN(CCC(C#N)(c2ccccc2)c2ccccc2)CC1",
    "Assigned label": "inactive"
  },
  {
    "Molecule": "N[C@@H](Cc1ccc(N(CCCl)CCCl)cc1)C(=O)O",
    "Assigned label": "inactive"
  }
]
